target: pre-existing anti-drug antibodies (ADA) present in human sera; experiment: pre-existing ADA ELISA, scFv coated, human sera unspiked vs spiked
The following binders are listed with their measured No of serum samples >30% inhibition (30% CCP) without SCP (serum samples) values.
Kindly provide the number alone.

>>> result_number("PRO2948 (scFv 37-20-B03-sc09.1_(T146R)) (scFv, PRO2230 variant; VH substitution, AHo numbering; also called PRO2230 T146R) scFv: DIQMTQSPASLSASVGDRVTITCQASQSIGTYLAWYQQKPGKPPKLLIYRAFILASGVPSRFSGSGSGTDFTLTISSLQPEDFATYYCQSNFYSDSTTIGPNAFGTGTKVTVLGGGGGSGGGGSGGGGSGGGGSEVQLVESGGGLVQPGGSLRLSCAASGFSFNSDYWIYWVRQAPGKGLEWIASIYGGSSGNTQYASWAQGRFTISRDNSKNTVYLQMNSLRAEDTAVYFCARGYVDYGGATDLWGQGTLVRVSS")
0
>>> result_number("PRO3310 (scFv 37-20-B03-sc09.1_(L12R, T101R, L144A, T146Q)) (scFv, PRO2230 variant; VH substitutions, AHo numbering; also called PRO2230 L12R-T101R-L144A-T146Q) scFv: DIQMTQSPASLSASVGDRVTITCQASQSIGTYLAWYQQKPGKPPKLLIYRAFILASGVPSRFSGSGSGTDFTLTISSLQPEDFATYYCQSNFYSDSTTIGPNAFGTGTKVTVLGGGGGSGGGGSGGGGSGGGGSEVQLVESGGGRVQPGGSLRLSCAASGFSFNSDYWIYWVRQAPGKGLEWIASIYGGSSGNTQYASWAQGRFTISRDNSKNTVYLQMNSLRAEDRAVYFCARGYVDYGGATDLWGQGTAVQVSS")
6

// field: No of serum samples >30% inhibition (30% CCP) without SCP (serum samples); key: PRO2942 (scFv 54-21-H03-sc01_(T146R)) (scFv, PRO1922 variant; VH substitution, AHo numbering; also called PRO1922 T146R) scFv: DIQMTQSPSSLSASVGDRVTITCQASESIYSSLAWYQQKPGKAPKLLIYLASTLASGVPSRFSGSGSGTDFTLTISSLQPEDFATYYCQSTDYTTSTHRNSFGTGTKVTVLGGGGGSGGGGSGGGGSGGGGSEVQLVESGGGLVQPGGSLRLSCAASGFSFSTTYYMCWVRQAPGKGLEWIGCTNTASSVRTYYATWAKGRFTISRDNSKNTVYLQMNSLRAEDTAVYYCARDMGFADYALNLWGQGTLVRVSS ; value = 6

Entry source: patent US20250382363A1
